system: A673/TR/shEF; assay: cell viability (LOESS-normalised, relative to median of negative controls) (log2 ratio); higher = more viable cells (less compound effect), active = hit call of the paper (over 3 MAD below the median); settings: 0.926 µM; library screen: screen3; EWS-FLI1 expression: low (doxycycline-induced shRNA knockdown); treatment time: 72 h
The campaign covered roughly 3,200 compounds. About 300 (9.4%) showed activity. For the sample, actives were picked, then their nearest neighbours and some compounds at random.
Entries are grouped by cell viability (log2) into these classes: lower segment = under -0.1, middle segment = from -0.1 up to 0.06, upper segment = 0.06 and over

{"columns": ["compound", "label_class"],
 "data": [
  ["CC1CC2C3CCC4=CC(=O)C=CC4(C)C3C(=O)CC2(C)[C@@]1(O)C(=O)CO (some centres not stated)", "upper segment"],
  ["C=C1c2cccc(O)c2C(O)=C2C(=O)[C@]3(O)C(O)=C(C(N)=O)C(=O)[C@@H](N(C)C)[C@@H]3[C@@H](O)[C@H]12", "upper segment"],
  ["COc1cccc2c1C(=O)c1c(O)c3c(c(O)c1C2=O)C[C@@](O)(C(=O)CO)C[C@@H]3O[C@H]1C[C@H](N)[C@@H](O)[C@H](C)O1", "lower segment"],
  ["CC(C)(O)[C@@H]1CC[C@](C)([C@H]2[C@@H](O)C[C@@]3(C)[C@@H]4C[C@H](O[C@@H]5O[C@H](CO)[C@@H](O)[C@H](O)[C@H]5O)[C@H]5C(C)(C)[C@@H](O[C@@H]6OC[C@@H](O)[C@H](O)[C@H]6O)CC[C@@]56C[C@@]46CC[C@]23C)O1", "upper segment"],
  ["CC1(C)C(=O)N(CCN2CCC(C(=O)c3ccc(F)cc3)CC2)c2ccccc21", "middle segment"],
  ["Nc1ncn([C@H]2C[C@H](O)[C@@H](CO)O2)c(=O)n1", "middle segment"],
  ["Nc1ccn([C@@H]2CS[C@H](CO)O2)c(=O)n1", "upper segment"],
  ["Cc1cnc(C(=O)NCCc2ccc(S(=O)(=O)NC(=O)NC3CCCCC3)cc2)cn1", "upper segment"],
  ["CN(C)CCCN1c2ccccc2Sc2ccc(Cl)cc21", "middle segment"],
  ["O=c1c(-c2ccc(O)cc2)coc2cc(O)ccc12", "upper segment"],
  ["C[C@@H](O)[C@H]1C(=O)N2C(C(=O)[O-])=C(SC3Cn4cnc[n+]4C3)[C@H](C)[C@H]12 (some centres not stated)", "upper segment"],
  ["CC(=O)O[C@H]1C(=O)[C@@]2(C)[C@H]([C@H](OC(=O)c3ccccc3)[C@]3(O)C[C@H](OC(=O)[C@H](O)[C@@H](NC(=O)c4ccccc4)c4ccccc4)C(C)=C1C3(C)C)[C@]1(OC(C)=O)CO[C@@H]1C[C@@H]2O", "lower segment"],
  ["COc1cc2c(Oc3ccc4[nH]c(C)cc4c3F)ncnc2cc1OCCCN1CCCC1", "middle segment"],
  ["CCCCCCCCc1ccc(CCC(N)(CO)CO)cc1", "middle segment"],
  ["CNC(=O)CN(CCN(CCN(CC(=O)[O-])CC(=O)NC)CC(=O)[O-])CC(=O)[O-].O.[Gd+3]", "upper segment"],
  ["CC[C@@]1(O)C(=O)OCc2c1cc1n(c2=O)Cc2cc3c(CN(C)C)c(O)ccc3nc2-1", "lower segment"],
  ["Nc1ncnc2nc[nH]c12", "middle segment"],
  ["COc1ccc(-c2ccc3c(N4CCOC[C@@H]4C)nc(N4CCOC[C@@H]4C)nc3n2)cc1CO", "lower segment"],
  ["NC(=O)c1ncn([C@@H]2O[C@H](CO)[C@@H](O)[C@H]2O)n1", "upper segment"],
  ["Nc1ccn([C@H]2CC[C@@H](CO)O2)c(=O)n1", "upper segment"],
  ["COc1cccc2c1C(=O)c1c(O)c3c(c(O)c1C2=O)C[C@@](O)(C(C)=O)C[C@@H]3O[C@H]1C[C@H](N)[C@H](O)[C@H](C)O1", "lower segment"],
  ["Cc1nc(Nc2ncc(C(=O)Nc3c(C)cccc3Cl)s2)cc(N2CCN(CCO)CC2)n1", "lower segment"],
  ["O=C1[C@H](Cc2ccc(O)cc2)N2C(=O)CCN(C(=O)NCc3ccccc3)[C@H]2CN1Cc1cccc2ccccc12", "upper segment"],
  ["CC(=O)O[C@@]12CO[C@@H]1C[C@H](O)[C@@]1(C)C(=O)[C@H](O)C3=C(C)[C@@H](OC(=O)[C@H](O)[C@@H](NC(=O)OC(C)(C)C)c4ccccc4)C[C@@](O)([C@@H](OC(=O)c4ccccc4)[C@H]21)C3(C)C", "lower segment"],
  ["COc1ccc(-c2ccc3c(N4CCOCC4)nc(N4C[C@@H](C)O[C@@H](C)C4)nc3n2)cc1CO", "lower segment"],
  ["COc1ccc(Cl)cc1C(=O)NCCc1ccc(S(=O)(=O)NC(=O)NC2CCCCC2)cc1", "upper segment"],
  ["Cn1cc(C2=C(c3ccc(Cl)cc3Cl)C(=O)NC2=O)c2ccccc21", "middle segment"],
  ["COc1cccc2c1C(=O)c1c(O)c3c(c(O)c1C2=O)C[C@@](O)(C(=O)CO)C[C@@H]3O[C@H]1C[C@H](N)[C@H](O)[C@H](C)O1", "lower segment"],
  ["CCC1=C[C@@H]2CN(C1)Cc1c([nH]c3ccccc13)[C@@](C(=O)OC)(c1cc3c(cc1OC)N(C)[C@H]1[C@@](O)(C(=O)OC)[C@H](OC(C)=O)[C@]4(CC)C=CCN5CC[C@]31[C@@H]54)C2", "lower segment"],
  ["CCOc1cc2ncc(C#N)c(Nc3ccc(OCc4ccccn4)c(Cl)c3)c2cc1NC(=O)/C=C/CN(C)C", "middle segment"]
]}

* * *

tested on: A673/TR/shEF; test: cell viability (LOESS-normalised, relative to median of negative controls) (log2 ratio); higher = more viable cells (less compound effect), active = hit call of the paper (over 3 MAD below the median); settings: 0.25 µM; library screen: screen1; EWS-FLI1 expression: high (no doxycycline); treatment time: 72 h
Among all 3,200 compounds or so, about 300 (9.4%) showed activity. Many of the other results were omitted from the sample, so actives are more common in it than they were.
Entries are grouped by cell viability (log2) into these classes: Low: < 0.06; Mid: ≥ 0.06 and < 0.1; High: ≥ 0.1

{"columns": ["compound", "experimental_system", "label_class"],
 "data": [
  ["CN(C)c1ccc(C=C2SC(=S)N(c3ccc(F)cc3)C2=O)cc1", "A673/TR/shEF", "Mid"],
  ["COc1ccccc1-c1cc(=O)c2c(OC)cccc2o1", "A673/TR/shEF", "High"],
  ["Cc1onc(-c2c(Cl)cccc2Cl)c1C(=O)Nc1ccc(Br)cc1F", "A673/TR/shEF", "High"],
  ["Brc1ccccc1CN1CCN(Cc2ccco2)CC1", "A673/TR/shEF", "High"],
  ["COc1cc(CN2CCN(Cc3ccc([N+](=O)[O-])cc3)CC2)c([N+](=O)[O-])cc1OC", "A673/TR/shEF", "High"],
  ["COC(=O)[C@@H]1OC(=O)C2OC23[C@@]1(C)CCC1[C@]2(C)C(C[C@@H](O)[C@]13C)C(C)(C)[C@H](OC(C)=O)C[C@@H]2OC(C)=O (some centres undefined)", "A673/TR/shEF", "Mid"],
  ["Cc1cc(N2CCN(c3ncccn3)CC2)n2c(nc3ccccc32)c1C#N", "A673/TR/shEF", "High"],
  ["CC(=O)Oc1ccc2c(c1)CCC1C2CCC2(C)C(=O)CCC12 (centres undefined)", "A673/TR/shEF", "Low"],
  ["CC(=O)OC1CCC2(C)C3=C(CC[C@H]2C1(C)C)[C@@]1(C)CC[C@@H]([C@@H](C)CCC=C(C)C)[C@]1(C)CC3 (some centres undefined)", "A673/TR/shEF", "Low"]
]}

* * *

system: A673/TR/shEF; assay: cell viability (LOESS-normalised, relative to median of negative controls) (log2 ratio); higher = more viable cells (less compound effect), active = hit call of the paper (over 3 MAD below the median); conditions: 8.3 µM; library screen: screen3; EWS-FLI1 expression: low (doxycycline-induced shRNA knockdown); treatment time: 72 h
Out of some 3,200 compounds screened, about 300 (9.4%) showed activity. Only a selection was taken, and actives are over-represented in it overall.
Outcome codes: active, inactive

{"columns": ["compound", "experimental_system", "label_class"],
 "data": [
  ["CC(=O)O[C@H]1C(=O)[C@@]2(C)[C@H]([C@H](OC(=O)c3ccccc3)[C@]3(O)C[C@H](OC(=O)[C@H](O)[C@@H](NC(=O)c4ccccc4)c4ccccc4)C(C)=C1C3(C)C)[C@]1(OC(C)=O)CO[C@@H]1C[C@@H]2O", "A673/TR/shEF", "active"],
  ["Clc1ccc(COC(Cn2ccnc2)c2ccc(Cl)cc2Cl)c(Cl)c1 (stereo unspecified)", "A673/TR/shEF", "inactive"],
  ["O=c1[nH]cc(F)c(=O)[nH]1", "A673/TR/shEF", "inactive"],
  ["CCOc1cc2ncc(C#N)c(Nc3ccc(F)c(Cl)c3)c2cc1NC(=O)/C=C/CN(C)C", "A673/TR/shEF", "inactive"],
  ["C[C@@H]1C/C=C/C=C/C=C/C=C/[C@H](OC2O[C@H](C)[C@@H](O)[C@H](N)[C@@H]2O)C[C@@H]2O[C@](O)(C[C@@H](O)C[C@H]3O[C@@H]3/C=C/C(=O)O1)C[C@H](O)[C@H]2C(=O)O (stereo partly specified)", "A673/TR/shEF", "inactive"],
  ["CC(=O)O[C@@]12CO[C@@H]1C[C@H](O)[C@@]1(C)C(=O)[C@H](O)C3=C(C)[C@@H](OC(=O)[C@H](O)[C@@H](NC(=O)OC(C)(C)C)c4ccccc4)C[C@@](O)([C@@H](OC(=O)c4ccccc4)[C@H]21)C3(C)C", "A673/TR/shEF", "active"]
]}
